Assay: Dissociation constant, pKa of the compound at pH 7.4
Type: physicochemical
property_label: pKa
Reply with the value as a number alone.

Reported pKa ( CC(C)c1c(-c2ccccc2)[nH]c2c(C#N)cnn2c1=O ) = 6

* * *

Assay: Volume of distribution in CD-1 mouse at 1 mg/kg, iv or 5 mg/kg, po
Assay type: ADME, organism-based
Conditions: in vivo
Recorded measurements of Vd, one per entry
Please respond with the number in L/kg and leave the unit unwritten.

Here are 2 compounds together with their reported answers.
input_smiles | value_unit | Vd
CC(C)c1c(-c2cnn(C(C)C)c2)[nH]c2c(C#N)cnn2c1=O | L/kg | 0.54
CC(C)c1c(-c2cnn(C(C)(C)C)c2)[nH]c2c(C#N)cnn2c1=O | L/kg | 0.44

Reported Vd ( CC(C)c1c(-c2cnn(-c3ccccc3)c2)[nH]c2c(C#N)cnn2c1=O ) = 0.63

Reported Vd ( CC(C)c1c(-c2cnn(C)c2)[nH]c2c(C#N)cnn2c1=O ) = 0.6
